Please respond with reported A1 for every item in the list.
STUDY_TARGET: HLA-A1 (A*0101) (Homo sapiens, UniProt P04439, A114D/A174V/A182V/D101N/D185E/E176A/E190D/L180R/Q94H/R68K/S129P/T187R/V100A/V91M/W191G)
ASSAY_DETAILS: biochemical
Type: binding
Numbers only.

List the reported A1 of each sequence below.
1. FLAIIWVDL
2. IMIVGGLVGL
3. ALLYKLDIV
4. SLLTFMIAA
5. ALFLGFLGA
6. FLYGALLL

Result:
0.0233
0.0252
0.0362
0.5300
0.0945
0.0345

List the reported A1 of each sequence below.
1. WALTVVWLL
2. LLNATDIAVA
3. GLLECCARCLV
4. HMLQLTVWGI
5. RVIEVLQRA
6. LLQYWSQEL
7. SLLNATDIAV
8. TVWGIKQLQA

Result:
[0.0415, 0.0117, 0.0515, 0.0677, 0.1963, 0.0265, 0.1050, 0.0150]

List the reported A1 of each sequence below.
1. SLCADARMYGV
2. WLWYIKIFI
3. LLIAARIVEL

Result:
1: 0.0140; 2: 0.0355; 3: 0.1550

List the reported A1 of each sequence below.
1. ALTVVWLLV
2. TLQCKIKQII
3. LLVFACSAV
4. LLNATDIAV
5. FLGAAGSTM
6. LLYKLDIVSI
7. AVLSIVNRV
8. GLVGLRIVFA

Result:
1: 0.0390; 2: 0.0200; 3: 0.0107; 4: 0.0607; 5: 0.0190; 6: 0.0245; 7: 0.0132; 8: 0.0195

List the reported A1 of each sequence below.
1. TIIVHLNESV
2. FLYGALLLA

Result:
[0.0350, 1.9000]

List the reported A1 of each sequence below.
1. IISLWDQSL
2. RMYGVLPWI

Result:
1: 0.0179; 2: 0.1650

List the reported A1 of each sequence below.
1. FMIAATYNFAV
2. LLGRRGWEV
3. IAATYNFAV

Result:
[0.4950, 0.0142, 0.0540]

List the reported A1 of each sequence below.
1. MLQLTVWGI
2. FIMIVGGLV
3. ALFLGFLGAA

Result:
[0.2450, 0.0131, 0.4950]

* * *

STUDY_TARGET: DRB1*0301 (Homo sapiens, UniProt P01903+P01911, A100K/A102G/A103R/A169T/F55Y/I96L/K41T/L162R/M171V/P40S/Q125H/Q178H/Q39Y/R42S/S66N/T106N/T262R/W38E/Y61H)
Sequence (P01903 26-254 limits assumed, other chains not shown): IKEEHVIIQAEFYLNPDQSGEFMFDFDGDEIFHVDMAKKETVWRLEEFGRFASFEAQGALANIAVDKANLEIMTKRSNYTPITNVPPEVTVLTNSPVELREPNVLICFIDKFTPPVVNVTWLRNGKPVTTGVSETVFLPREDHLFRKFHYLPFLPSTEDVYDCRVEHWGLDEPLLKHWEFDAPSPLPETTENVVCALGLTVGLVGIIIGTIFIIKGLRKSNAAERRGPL
ASSAY_DETAILS: biochemical
EXPERIMENTAL_ENDPOINT: pIC50
Numbers only, as −log10 of the molar value.

CC(C)C[C@H](NC(=O)[C@H](CCC(N)=O)NC(=O)[C@H](CCCCN)NC(=O)[C@@H](NC(=O)[C@H](CC(C)C)NC(=O)[C@H](CCC(N)=O)NC(=O)[C@@H](NC(=O)[C@H](C)NC(=O)[C@H](CO)NC(=O)[C@@H](NC(=O)[C@@H](NC(=O)[C@H](CC(=O)O)NC(=O)[C@@H](N)CC(=O)O)[C@@H](C)O)C(C)C)[C@@H](C)O)C(C)C)C(=O)N[C@@H](CCC(N)=O)C(=O)N[C@@H](Cc1c[nH]cn1)C(=O)O [Peptide 89.0162] | 6.62

Shift focus to the following entry.
The measured pIC50 associated with CC[C@H](C)[C@H](N)C(=O)N[C@@H](CCC(=O)O)C(=O)N[C@@H](Cc1ccccc1)C(=O)N[C@H](C(=O)N[C@H](C(=O)N[C@@H](Cc1ccccc1)C(=O)N[C@@H](CC(C)C)C(=O)NCC(=O)N[C@@H](C)C(=O)N[C@@H](CC(C)C)C(=O)N[C@@H](CCCCN)C(=O)N[C@@H](CO)C(=O)N[C@@H](Cc1ccccc1)C(=O)N[C@@H](CC(C)C)C(=O)N[C@@H](CCCCN)C(=O)O)[C@@H](C)O)[C@@H](C)CC [Peptide 89.0033] reads 5.64

All figures here come from patent US9340577B2.
